Source: patent US20240173419A1

- System: CDK2 (Homo sapiens, UniProt P24941)
- Construct: endogenous in cells; host or cells: MKN1 cells
- Assay: CDK2 degradation in MKN1 cells (AlphaLISA)
- Format: cell-based
- Condition: 14 h incubation
Endpoint: CDK2 degradation 14 h: Average Dmax %

Past entries and their recorded results:
Cc1cc(S(=O)(=O)C2CCC3(CC2)CN(CC2CCN(c4cccc5c4n(C)c(=O)n5C4CCC(=O)NC4=O)CC2)C3)ccc1Nc1ncc2cc(Cl)c(=O)n(C3CCCC3)c2n1 (centres unmarked) yielded CDK2 degradation 14 h: Average Dmax % of A (A (>75% o))

Cc1cc(S(=O)(=O)NCCN2CCN(CC3CCN(c4ccc5c(c4)n(C)c(=O)n5C4CCC(=O)NC4=O)CC3)CC2)ccc1Nc1ncc2cc(Cl)c(=O)n(C(C)C)c2n1 (centres unmarked) yielded CDK2 degradation 14 h: Average Dmax % of A (A (>75% o))

Cc1cc(S(=O)(=O)N2CC(CN(C)C3CCN(c4cccc5c4n(C)c(=O)n5C4CCC(=O)NC4=O)CC3)C2)ccc1Nc1ncc2cc(Cl)c(=O)n(C3CCCC3)c2n1 (centres unmarked) yielded CDK2 degradation 14 h: Average Dmax % of B (B (>50% -75%))

Cc1cc(S(=O)(=O)C2CC3(CCN(CC4CCN(c5cccc(C6CCC(=O)NC6=O)c5)CC4)CC3)C2)ccc1Nc1ncc2cc(Cl)c(=O)n(C3CCCC3)c2n1 (centres unmarked) yielded CDK2 degradation 14 h: Average Dmax % of C (C (>25% -50%))

COc1ccc2c(c1N1CCC(N(C)CC3CCN(S(=O)(=O)c4ccc(Nc5ncc6cc(Cl)c(=O)n(C(C)C)c6n5)c(C)c4)CC3)CC1)n(C)c(=O)n2C1CCC(=O)NC1=O (centres unmarked) yielded CDK2 degradation 14 h: Average Dmax % of A (A (>75% o))

Take each entry in turn and give its CDK2 degradation 14 h: Average Dmax %.
1. Cc1cc(S(=O)(=O)NC2CCC(CCN3CCN(c4ccc(C5CCC(=O)NC5=O)cc4F)CC3)CC2)ccc1Nc1ncc2c(n1)N(C1CCCC(O)C1)C(=O)C21CC1 (centres unmarked)
2. Cc1cc(S(=O)(=O)NCCOCCOCCOCCOCCNc2cccc3c2C(=O)N(C2CCC(=O)NC2=O)C3=O)ccc1Nc1ncc2cc(C(F)F)c(=O)n(C3CCCC3(C)O)c2n1 (centres unmarked)
3. Cc1cc(S(=O)(=O)N(C)CCO[C@H]2CC[C@H](CN3CCC(c4ccc5c(c4)n(C)c(=O)n5C4CCC(=O)NC4=O)CC3)CC2)ccc1Nc1ncc2cc(Cl)c(=O)n(C3CCCC3)c2n1 (some centres unmarked)

B (B (>50% -75%))
A (A (>75% o))
A (A (>75% o))

Take each entry in turn and give its CDK2 degradation 14 h: Average Dmax %.
1. Cc1cc(S(=O)(=O)N2CC3(CCN(CC4CCN(c5ccc6c(c5F)n(C)c(=O)n6C5CCC(=O)NC5=O)CC4)CC3(F)F)C2)ccc1Nc1ncc2ccc(=O)n(C3CCCC3)c2n1 (centres unmarked)
2. Cc1cc(S(=O)(=O)C2CC3(CCN(CC4(F)CCN(c5cccc6c5n(C)c(=O)n6C5CCC(=O)NC5=O)CC4)CC3)C2)ccc1Nc1ncc2cc(Cl)c(=O)n(C3CCCC3)c2n1 (centres unmarked)
3. Cc1cc(S(=O)(=O)C2CC3(CCN(CC4CCN(c5ccc6c(c5F)n(C)c(=O)n6C5CCC(=O)NC5=O)CC4)CC3)C2)ccc1Nc1ncc2cc(Cl)c(=O)n(C3CCOC3)c2n1 (centres unmarked)

["B (B (>50% -75%))", "A (A (>75% o))", "C (C (>25% -50%))"]
